- ASSAY_COMMENT: Inhibition of Escherichia coli DNA topoisomerase 4 ATPase activity

SMILES_STRUCTURE	IC50
CO[C@@H]1[C@@H](OC(N)=O)[C@@H](O)[C@H](Oc2ccc3c(O)c(NC(=O)c4ccc(O)c(CC=C(C)C)c4)c(=O)oc3c2C)OC1(C)C	450 nM

* * *

- ASSAY_COMMENT: Inhibition of Escherichia coli DNA topoisomerase 4 decatenation activity
pIC50: −log10 of the molar value.
READOUT: pIC50

SMILES_STRUCTURE	RECORDED_RESULT
CO[C@@H]1[C@@H](OC(N)=O)[C@@H](O)[C@H](Oc2ccc3c(O)c(NC(=O)c4ccc(O)c(CC=C(C)C)c4)c(=O)oc3c2C)OC1(C)C	5.00
CO[C@@H]1[C@@H](OC(=O)c2ccc(C)[nH]2)[C@@H](O)[C@H](Oc2ccc3c(O)c(NC(=O)c4ccc(O)c(CC=C(C)C)c4)c(=O)oc3c2Cl)OC1(C)C	5.52
CO[C@@H]1[C@@H](OC(=O)c2ccc(C)[nH]2)[C@@H](O)[C@H](Oc2ccc3c(O)c(NC(=O)c4c[nH]c(C(=O)Nc5c(O)c6ccc(O[C@@H]7OC(C)(C)[C@H](OC)[C@@H](OC(=O)c8ccc(C)[nH]8)[C@H]7O)c(C)c6oc5=O)c4C)c(=O)oc3c2C)OC1(C)C	5.30
